# systemUnderTest: hM5 (Homo sapiens, UniProt P08912)
# Construct: expressed in transfected cells
# Sequence (P08912 1-532): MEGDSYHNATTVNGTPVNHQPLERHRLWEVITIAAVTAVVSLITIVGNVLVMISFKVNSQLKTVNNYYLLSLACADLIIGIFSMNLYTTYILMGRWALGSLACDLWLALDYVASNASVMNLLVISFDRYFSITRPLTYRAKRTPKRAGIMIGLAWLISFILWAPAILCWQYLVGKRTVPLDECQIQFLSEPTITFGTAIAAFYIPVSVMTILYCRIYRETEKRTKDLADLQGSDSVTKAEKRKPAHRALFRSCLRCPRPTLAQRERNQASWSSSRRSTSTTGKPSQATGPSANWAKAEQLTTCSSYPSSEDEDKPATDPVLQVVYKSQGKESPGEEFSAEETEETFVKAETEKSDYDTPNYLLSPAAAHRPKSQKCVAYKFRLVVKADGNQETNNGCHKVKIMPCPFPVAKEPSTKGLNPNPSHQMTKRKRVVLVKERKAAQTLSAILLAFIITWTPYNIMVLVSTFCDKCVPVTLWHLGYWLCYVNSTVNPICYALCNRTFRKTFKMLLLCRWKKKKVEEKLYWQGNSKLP
# assayExplanation: Calcium mobilization concentration-response (IC50 vs EC80 acetylcholine), CHO hM5
# Assay type: cell-based
# conditionLabel: CELL LINE hM5; calcium mobilization, EC80 acetylcholine addition; read-out: IC50
metricName: IC50 (µM)
Write it as a number; the unit µM goes unstated.

O=S(=O)(c1ccc2c(c1)CCO2)N1CC=C(c2cn3ncnc3cc2Cl)CC1	0.149

**Q:** Look up IC50: `Cc1cc2nc(C(F)F)nn2cc1C1=CCN(S(=O)(=O)c2cnn3c2CCCC3)CC1`
**A:** 1.2

**Q:** Look up IC50: `CCc1cc2ncnn2cc1C1CCN(S(=O)(=O)c2cnc3n2CCCC3)CC1`
**A:** 0.083

====

# systemUnderTest: hM5 (Homo sapiens)
# Construct: expressed in transfected cells
# assayExplanation: Calcium mobilization concentration-response (IC50 vs EC80 acetylcholine), CHO hM5
# Type: cell-based
# conditionLabel: CELL LINE hM5; calcium mobilization, EC80 acetylcholine addition; read-out: IC50
Recorded pIC50 for the following compounds
Bear in mind: pIC50 is minus log10 of a mol/L concentration; give just that figure.

O=S(=O)(c1cnc2ccccn12)N1CCC(c2cn3ncnc3cc2Cl)CC1 [Compound 342]	7.82
Cn1cc(S(=O)(=O)N2CCC(c3cn4ncnc4cc3C(F)(F)F)CC2)c(C(F)(F)F)n1 [Compound 99]	5.28
Cc1cc2c(cc1C1CCN(S(=O)(=O)c3cnn(C)c3C)CC1)OCO2 [Compound 371]	7.77
COc1cc2ncnn2cc1C1CCN(S(=O)(=O)c2cnn3c2CCC3)CC1 [Compound 263]	5.85
Cc1cc2ncnn2cc1C1CCN(S(=O)(=O)c2cn(C(F)F)nc2C)CC1 [Compound 144]	5.92

**Q:** Look up pIC50: Cc1cc2ncnn2cc1C1CCN(S(=O)(=O)c2ncn(C)c2Cl)CC1 [Compound 321]
**A:** 5.96

**Q:** Look up pIC50: Cc1cc2ncnn2nc1C1CCN(S(=O)(=O)c2cnn(C)c2C)CC1 [Compound 165]
**A:** 7.22

**Q:** Look up pIC50: Cc1c(C2CCN(S(=O)(=O)c3ccc4c(c3)CCO4)CC2)cn2ncnc2c1F [Compound 267]
**A:** 6.68

**Q:** Look up pIC50: O=S(=O)(c1cnn2c1CCC2)N1CC=C(c2cn3ncnc3cc2Cl)CC1 [Compound 196]
**A:** 8.21

**Q:** Look up pIC50: Cc1cc2ncnn2cc1C1(F)CCN(S(=O)(=O)c2cnn(C)c2C)CC1 [Compound 173]
**A:** 7.09

====

Recorded log10(IC50) for the following compounds
# systemUnderTest: hM5 (Homo sapiens, UniProt P08912)
# Construct: expressed in transfected cells
# Sequence (P08912 1-532): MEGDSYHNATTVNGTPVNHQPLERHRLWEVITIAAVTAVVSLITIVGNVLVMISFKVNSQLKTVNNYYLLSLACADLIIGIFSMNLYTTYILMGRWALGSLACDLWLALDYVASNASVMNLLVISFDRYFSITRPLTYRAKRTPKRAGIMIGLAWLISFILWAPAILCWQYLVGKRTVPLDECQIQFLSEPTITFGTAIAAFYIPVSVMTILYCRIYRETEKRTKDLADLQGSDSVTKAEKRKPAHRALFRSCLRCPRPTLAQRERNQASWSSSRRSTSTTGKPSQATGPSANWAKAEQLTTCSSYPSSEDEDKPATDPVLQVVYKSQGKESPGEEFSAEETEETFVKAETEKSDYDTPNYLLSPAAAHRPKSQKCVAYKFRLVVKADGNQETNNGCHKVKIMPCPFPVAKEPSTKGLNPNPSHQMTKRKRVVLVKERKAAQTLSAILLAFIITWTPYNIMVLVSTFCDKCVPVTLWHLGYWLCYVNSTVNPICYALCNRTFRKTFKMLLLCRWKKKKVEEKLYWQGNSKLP
# assayExplanation: Calcium mobilization concentration-response (IC50 vs EC80 acetylcholine), CHO hM5
# Assay type: cell-based
# conditionLabel: CELL LINE hM5; calcium mobilization, EC80 acetylcholine addition; read-out: IC50
Recorded IC50 (log10, µM)

Cc1c(S(=O)(=O)N2CCC(c3cn4ncnc4cc3F)CC2)cnn1C [Compound 161]	-0.90
Cc1cc2ncnn2cc1C1CCN(S(=O)(=O)c2c(F)cc3c(c2F)C(C)CO3)CC1 (centres unmarked) [Compound 116]	-0.69
Cc1cc2nccn2cc1C1CCN(S(=O)(=O)c2ccc3c(c2)CCO3)CC1 [Compound 66]	0.11

**Q:** Look up log10(IC50): Cc1cc2ncnn2cc1[C@@H]1CCN(S(=O)(=O)c2cnn(C)c2C)C[C@H]1O (racemic) [Compound 197]
**A:** -0.23

**Q:** Look up log10(IC50): Cc1cc2c(cc1S(=O)(=O)N1CCC(c3cc(C)c4ncnn4c3)CC1)C(C)CO2 (centres unmarked) [Compound 86]
**A:** 0.96

====

# systemUnderTest: hM5 (Homo sapiens, UniProt P08912)
# Construct: expressed in transfected cells
# assayExplanation: Calcium mobilization concentration-response (IC50 vs EC80 acetylcholine), CHO hM5
# Format: cell-based
# conditionLabel: CELL LINE hM5; vs EC80 acetylcholine; read-out: IC50
metricName: pIC50
Bear in mind: pIC50 is minus log10 of a mol/L concentration; give just that figure.

**Q:** Look up pIC50: Cn1ncc(S(=O)(=O)N2CCC(c3cn4ncnc4cc3F)CC2)c1CC#N [Compound 403]
**A:** 5.30

**Q:** Look up pIC50: Cc1cc2ncnn2cc1C1(F)CCN(S(=O)(=O)c2cnn(C)c2C#N)CC1 [Compound 462]
**A:** 7.07

**Q:** Look up pIC50: O=S(=O)(c1cnc2sccn12)N1CCC(c2cn3ncnc3cc2Cl)CC1 [Compound 531]
**A:** 8.22

**Q:** Look up pIC50: Cc1cc2ncnn2cc1C1CCN(S(=O)(=O)c2cnn(C)c2Br)CC1 [Compound 522]
**A:** 8.10

**Q:** Look up pIC50: CCc1cc2ncnn2cc1C1CCN(S(=O)(=O)c2cc(C)ns2)CC1 [Compound 493]
**A:** 7.19

====

# systemUnderTest: hM5 (Homo sapiens, UniProt P08912)
# Construct: expressed in transfected cells
# assayExplanation: Calcium mobilization concentration-response (IC50 vs EC80 acetylcholine), CHO hM5
# Type: cell-based
# conditionLabel: CELL LINE hM5; calcium mobilization, EC80 acetylcholine addition; read-out: IC50
metricName: pIC50
Bear in mind: pIC50 is minus log10 of a mol/L concentration; give just that figure.

Record excerpt, results attached:
Cc1cc2ncnn2cc1C1CCN(S(=O)(=O)c2cnn3c2NCCC3)CC1	7.21
CCc1cc2ncnn2cc1C1CCN(S(=O)(=O)c2cnc3ccccn23)CC1	6.47
Cc1cc2ncnn2cc1C1CCN(S(=O)(=O)c2c(Cl)nc3sccn23)CC1	7.89
Cc1cc(S(=O)(=O)N2CCC(c3cn4ncnc4cc3C)CC2)c(C)s1	6.00
Cc1nc2cc(C)c(C3CCN(S(=O)(=O)c4ccc5c(c4)C(C)CO5)CC3)cn2n1 (centres unmarked)	5.68
O=S(=O)(c1ccc2c(c1)CCO2)N1CCC(c2cc3[nH]ccc3cn2)CC1	5.70

**Q:** // fetch hM5 (Homo sapiens, UniProt P08912) pIC50 for Cc1cc2ncnn2cc1[C@@H]1CCN(S(=O)(=O)c2cnn(C)c2Cl)C[C@H]1O (racemic)
**A:** 6.99

**Q:** // fetch hM5 (Homo sapiens, UniProt P08912) pIC50 for `CN1CCOc2cc(C3=CCN(S(=O)(=O)c4cnn(C)c4Cl)CC3)c(Cl)cc21`
**A:** 5.84

**Q:** // fetch hM5 (Homo sapiens, UniProt P08912) pIC50 for `Cc1cc2nccn2cc1C1CCN(S(=O)(=O)c2cc3c(cc2F)OCC3)CC1`
**A:** 5.59

**Q:** // fetch hM5 (Homo sapiens, UniProt P08912) pIC50 for Cc1cc2ncnn2cc1[C@@H]1CCN(S(=O)(=O)c2cn(C)nc2C)C[C@H]1F (racemic)
**A:** 6.56

**Q:** // fetch hM5 (Homo sapiens, UniProt P08912) pIC50 for `Cc1cc2nccn2nc1C1CCN(S(=O)(=O)c2ccc3c(c2)N(C)CCO3)CC1`
**A:** 5.82
